# Test system: BDF1 mice, B16 melanoma ip, median survival T/C
# TEST_NAME: NCI In Vivo Anticancer Drug Screen. Data for tumor model B16 Melanoma (intraperitoneal) in B6D2F1 (BDF1) mice
# MEASUREMENT_PARAMETERS: endpoint: median survival time; dose: 100.0 mg/kg/injection; schedule: Q01DX009 (ip); vehicle: Klucel (hydroxypropylcellulose) (HPC); higher = longer survival
# Description: The antitumor activity of compounds was measured in mice bearing transplantable tumors. Survival or tumor size were measured and the results are expressed as the measurement made in the treated group (T) divided by the measurement made in the vehicle treated control group (C). The tumor model used in this assay is B16 Melanoma (intraperitoneal) in B6D2F1 (BDF1) mice
Toxic doses and inconclusive results are not listed.
MEASURED_PARAMETER: T/C

Study these solved cases before continuing.
[[record]]
compound = "c1cc(OCC2CO2)ccc1OCC1CO1 (stereo not drawn)"
tested_system = "BDF1 mice, B16 melanoma ip, median survival T/C"
result_value = "120 % of control"

[[record]]
compound = "CCN(CC)CCCCCOC(=O)c1ccccc1"
tested_system = "BDF1 mice, B16 melanoma ip, median survival T/C"
result_value = "93 % of control"

[[record]]
compound = "O=C(O)c1ccc2c([N+](=O)[O-])cccc2n1"
tested_system = "BDF1 mice, B16 melanoma ip, median survival T/C"
result_value = "112 % of control"


// sample O=C1NC(c2ccc3ccccc3c2)Nc2ccccc21 (stereo not drawn) , its T/C was 96 % of control

// sample N/C(=N\N=C\c1ccc(-c2ccccc2)cc1)N[N+](=O)[O-] , its T/C was 93 % of control

// sample NC(=O)OCCCc1ccccc1 , its T/C was 107 % of control

// sample c1ccc(N2CCOCC2)cc1 , its T/C was 96 % of control

// sample COc1ccc2ccccc2c1C1NC(=O)c2ccccc2N1 (stereo not drawn) , its T/C was 108 % of control

// sample CCCCCCCCCCCCCCOC(=O)Cl , its T/C was 92 % of control

// sample Cc1ccc(NS(=O)(=O)c2ccc(F)cc2)c(C)c1 , its T/C was 106 % of control

// sample c1ccc(CC2NCCc3c2[nH]c2ccccc32)cc1 (stereo not drawn) , its T/C was 86 % of control

// sample COc1cccc(NC(=O)Nc2ccccc2OC)c1 , its T/C was 86 % of control

// sample O=C(O)c1cc(-c2ccc(Cl)cc2)nc2c(Cl)cccc12 , its T/C was 100 % of control

====

In this section, each of the compounds is paired with its reported T/C.
# Tested on: BDF1 mice, B16 melanoma ip, median survival T/C
# TEST_NAME: NCI In Vivo Anticancer Drug Screen. Data for tumor model B16 Melanoma (intraperitoneal) in B6D2F1 (BDF1) mice
# MEASUREMENT_PARAMETERS: endpoint: median survival time; dose: 50.0 mg/kg/injection; schedule: Q01DX009 (ip); vehicle: saline; higher = longer survival
# Description: The antitumor activity of compounds was measured in mice bearing transplantable tumors. Survival or tumor size were measured and the results are expressed as the measurement made in the treated group (T) divided by the measurement made in the vehicle treated control group (C). The tumor model used in this assay is B16 Melanoma (intraperitoneal) in B6D2F1 (BDF1) mice
Inconclusive results and toxic doses are left out.

Study these solved cases before continuing.
[[record]]
compound = "Br/C=C/C[N+]12CN3CN(CN(C3)C1)C2"
result_value = "110 % of control"

[[record]]
compound = "CCN(CC)CCN(C)C"
result_value = "118 % of control"

[[record]]
compound = "O=C1Nc2ccc(Cl)cc2C(c2ccccc2)=NC1O (stereo not drawn)"
result_value = "95 % of control"


// sample CN(C)CC/C=C1/c2ccccc2COc2ccccc21 , its T/C was 105 % of control

// sample O=C(O)c1ccc(S(=O)(=O)O)cc1C(=O)O , its T/C was 92 % of control

// sample O=C1C(=O)c2ccccc2C(O)=C1CC=C(Cl)Cl , its T/C was 100 % of control

// sample CO[C@@H](C=O)O[C@@H](C=O)CO , its T/C was 100 % of control
